Data provenance is ChEMBL document CHEMBL1152543.

System: MIA PaCa-2
Assay: Cytotoxicity against human MIAPaCa2 cells at 20 uM after 72 hrs by MTT assay
Assay type: functional, cell-based
The source made the active and inactive calls. The rule behind the calls is not given here.
endpoint name: Activity

C=C(COC)[C@@H]1CC[C@]2(COC(=O)n3ccnc3)CC[C@]3(C)[C@H](CC[C@@H]4[C@@]5(C)CC[C@H](O)C(C)(C)[C@@H]5CC[C@]43C)[C@@H]12 : Active
C=C(C)[C@@H]1CC[C@]2(C(=O)O)CC[C@]3(C)[C@H](CC[C@@H]4[C@@]5(C)CC[C@H](OC(=O)n6ccnc6)C(C)(C)[C@@H]5CC[C@]43C)[C@@H]12 : Active
C=C(C)[C@@H]1CC[C@]2(C(=O)O)CC[C@]3(C)[C@H](CC[C@@H]4[C@@]5(C)CC[C@H](O)C(C)(C)[C@@H]5CC[C@]43C)[C@@H]12 : Active

====

Tested on: HeLa
Assay: Cytotoxicity against human HeLa cells after 72 hrs by MTT assay
Type: functional, cell-based
endpoint name: pIC50
// pIC50: -log10(molar conc.)

Qu. Answer with the recorded pIC50 for the molecule listed here: C=C(C)[C@@H]1CC[C@]2(COC(=O)n3ccnc3)CC[C@]3(C)[C@H](CC[C@@H]4[C@@]5(C)CC[C@H](O)C(C)(C)[C@@H]5CC[C@]43C)[C@@H]12
Ans. 5.12

Qu. Answer with the recorded pIC50 for the molecule listed here: C=C(COC)[C@@H]1CC[C@]2(COC(=O)n3ccnc3)CC[C@]3(C)[C@H](CC[C@@H]4[C@@]5(C)CC[C@H](O)C(C)(C)[C@@H]5CC[C@]43C)[C@@H]12
Ans. 5.01

Qu. Answer with the recorded pIC50 for the molecule listed here: C=C(C)[C@@H]1CC[C@]2(C(=O)n3ccnc3)CC[C@]3(C)[C@H](CC[C@@H]4[C@@]5(C)CC[C@H](OC(=O)n6ccnc6)C(C)(C)[C@@H]5CC[C@]43C)[C@@H]12
Ans. 5.09
